# Test system: CEM-SS cells
# protocol notes: Toxicity XTT in CEM-SS cells (drug resistant strain assay)
# Assay type: cell-based
# study conditions: run with HIV-1 strain NL4-3P236L; read-out: TC50 (the source's name)
# Experimental: Cells were prepared as described above. Virus Preparation—The wild type NL4-3 and drug resistant A17 viruses were obtained from the NIH AIDS Research and Reference Reagent Program and stock virus pools were produced in CEM-SS cells. […] Virus was re-suspended and diluted into tissue culture medium such that the amount of virus added to each well in a volume of 50 μL was the amount determined to yield 85 to 95% cell killing at 6 days post-infection. […]
observation type: CC50

Query string: Requested read-out: CC50. Entry: CC(C)Nc1cccnc1N1CCN(C(=O)c2cc3cc(NS(C)(=O)=O)ccc3[nH]2)CC1 [Delavirdine, reference compound]
Result string: > 1000 nM
